Recorded values, source patent US11912703B2.

# ASSAY TARGET: human TLR7 (Homo sapiens (Human))
# Sequence (Q9NYK1 27-1049): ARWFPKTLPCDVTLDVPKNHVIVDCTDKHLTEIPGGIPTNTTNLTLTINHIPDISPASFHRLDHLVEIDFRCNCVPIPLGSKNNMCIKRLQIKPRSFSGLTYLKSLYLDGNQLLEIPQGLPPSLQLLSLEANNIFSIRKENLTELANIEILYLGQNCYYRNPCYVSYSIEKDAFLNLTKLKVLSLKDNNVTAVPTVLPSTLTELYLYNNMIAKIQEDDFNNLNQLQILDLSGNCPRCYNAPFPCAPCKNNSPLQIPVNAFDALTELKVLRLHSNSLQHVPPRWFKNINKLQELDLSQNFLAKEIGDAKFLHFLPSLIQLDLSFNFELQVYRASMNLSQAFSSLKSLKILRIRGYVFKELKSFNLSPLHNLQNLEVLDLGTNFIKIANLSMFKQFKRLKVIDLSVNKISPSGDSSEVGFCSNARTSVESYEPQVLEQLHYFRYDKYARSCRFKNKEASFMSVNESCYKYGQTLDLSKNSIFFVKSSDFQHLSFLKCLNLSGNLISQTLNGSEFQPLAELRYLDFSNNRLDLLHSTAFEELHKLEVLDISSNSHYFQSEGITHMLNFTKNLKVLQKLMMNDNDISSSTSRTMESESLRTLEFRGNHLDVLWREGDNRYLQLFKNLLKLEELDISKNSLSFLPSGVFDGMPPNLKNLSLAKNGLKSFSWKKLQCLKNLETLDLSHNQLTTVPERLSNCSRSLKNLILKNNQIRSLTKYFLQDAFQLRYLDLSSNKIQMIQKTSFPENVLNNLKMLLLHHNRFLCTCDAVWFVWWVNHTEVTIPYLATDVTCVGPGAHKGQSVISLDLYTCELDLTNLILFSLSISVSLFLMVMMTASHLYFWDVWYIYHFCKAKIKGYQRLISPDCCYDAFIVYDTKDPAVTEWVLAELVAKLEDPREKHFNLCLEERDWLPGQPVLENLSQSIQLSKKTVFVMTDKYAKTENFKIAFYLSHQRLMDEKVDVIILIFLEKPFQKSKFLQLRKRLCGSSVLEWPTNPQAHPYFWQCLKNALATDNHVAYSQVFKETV
# PROTOCOL DETAILS: TLR7 inhibition reporter assay (HEK-Blue SEAP)
# TEST CONTEXT: HEK-Blue cells overexpressing human TLR7, gardiquimod 7.5 μM stimulation
// reported IC50 per item
Express the result in nM but write the number alone.

# count of solved cases: 3
{"COMPOUND": "CNC(=O)CN(C)C1CCN(c2ncc3[nH]c(-c4cc(C)c5ncnn5c4)c(C(C)C)c3c2F)CC1 [Example 259]", "ATTRIBUTE MEASURED": "IC50", "MEAS VALUE": 2.1}
{"COMPOUND": "COc1cc(-c2[nH]c3cnc(C4CCN(C(=O)CN(C)C)CC4)c(C)c3c2C(C)C)cn2ncnc12 [Example 32]", "ATTRIBUTE MEASURED": "IC50", "MEAS VALUE": 40}
{"COMPOUND": "COc1cc(-c2[nH]c3cnc(N4CCN(CC5CC5)C[C@H]4C)c(F)c3c2C(C)C)cn2ncnc12 [Example 442]", "ATTRIBUTE MEASURED": "IC50", "MEAS VALUE": 2.5}

Moving on to the next compound.
Incoming: Data request, read-out IC50, for COc1cc(-c2[nH]c3cnc(N4CCN(C(=O)CN(C)C)CC4)c(C)c3c2C(C)C)cn2ncnc12 [Example 154]
Outgoing: 4
